Sourced from ChEMBL document CHEMBL1129413

Molecular target: Amine oxidase [flavin-containing] B (Mus musculus, UniProt Q8BW75)
Sequence (Q8BW75 whole entry): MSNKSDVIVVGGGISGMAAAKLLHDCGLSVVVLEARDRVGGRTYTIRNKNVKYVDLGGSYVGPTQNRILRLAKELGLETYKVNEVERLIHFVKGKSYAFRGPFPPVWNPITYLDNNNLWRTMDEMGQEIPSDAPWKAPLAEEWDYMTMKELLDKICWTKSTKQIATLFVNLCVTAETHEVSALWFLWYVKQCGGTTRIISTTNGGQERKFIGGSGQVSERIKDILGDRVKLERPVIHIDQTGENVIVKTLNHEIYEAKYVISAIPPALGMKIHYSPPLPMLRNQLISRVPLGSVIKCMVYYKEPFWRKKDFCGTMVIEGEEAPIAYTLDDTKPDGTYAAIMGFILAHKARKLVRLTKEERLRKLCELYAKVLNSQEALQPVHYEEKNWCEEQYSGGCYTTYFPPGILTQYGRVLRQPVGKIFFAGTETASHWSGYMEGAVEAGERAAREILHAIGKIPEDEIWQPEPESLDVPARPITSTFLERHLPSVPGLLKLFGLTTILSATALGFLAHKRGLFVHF
Test: The ability (124 umol/kg/day) to inactivate monoamine oxidaseB (MAO-B) was tested on brain mitochondrial membranes of mice for 3 day
Settings: 72 h
Quantity Name: Activity (nmol/min/mg)
Provide only the numeric value, understood in nmol/min/mg.

In: What value of Activity has been recorded for this entry: C#CCN(C(=O)OC1=CCN(C)CC1)[C@H](C)Cc1ccccc1
Out: 0.78
